For each of the molecules below, state its IC50.
target: M17 leucyl aminopeptidase (Plasmodium falciparum (isolate 3D7)); test: P. falciparum M17LAP inhibitors, primary screen, biochemical, fluorogenic H-Leu-NHMec substrate, 1536-well (AID 1619)
Sequence (Q8IL11 whole entry): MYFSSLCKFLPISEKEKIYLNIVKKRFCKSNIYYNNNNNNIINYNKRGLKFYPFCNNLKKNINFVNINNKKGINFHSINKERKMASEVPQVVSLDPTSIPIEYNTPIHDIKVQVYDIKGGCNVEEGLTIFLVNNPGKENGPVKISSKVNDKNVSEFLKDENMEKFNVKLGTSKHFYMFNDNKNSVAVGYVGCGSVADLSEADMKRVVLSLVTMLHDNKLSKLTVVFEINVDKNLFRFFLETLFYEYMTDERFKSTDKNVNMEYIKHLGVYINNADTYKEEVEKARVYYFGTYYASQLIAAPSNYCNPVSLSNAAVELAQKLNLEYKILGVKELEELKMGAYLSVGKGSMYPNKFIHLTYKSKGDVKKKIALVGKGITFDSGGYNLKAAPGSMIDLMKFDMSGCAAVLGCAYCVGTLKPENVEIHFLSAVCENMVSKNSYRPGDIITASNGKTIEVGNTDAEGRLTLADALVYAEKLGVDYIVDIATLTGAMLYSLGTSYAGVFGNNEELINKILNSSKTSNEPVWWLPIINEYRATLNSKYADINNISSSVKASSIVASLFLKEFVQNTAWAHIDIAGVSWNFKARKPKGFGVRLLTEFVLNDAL
Give the quantity in µM, number only.

Query :: State the recorded IC50 for this entry: O=C(Cc1cc(=O)[nH][nH]1)NN=Cc1cccc(Cl)c1Cl
Result :: 103

Query :: For the molecule C/C(=C\c1ccco1)C1c2c(-c3ccccc3)n[nH]c2OC(=N)C1C#N (stereo not given) , what IC50 is on record?
Result :: 83.7

Query :: Can you look up the measured IC50 of Cc1cc(-c2n[nH]c3c2C(c2cccc(O)c2)C(C#N)C(=N)O3)c(C)s1 (stereo not given) for me?
Result :: 52.8

Query :: # get_value(readout='IC50', item= CCOC(O)c1oc2c(c(=O)c1-c1nncn1-c1ccccc1)C=CC(=O)C2=O (stereo not given) )
Result :: 6.58

Query :: Which value of IC50 has been reported for O=NCc1c[nH]c2ccccc12 in the records?
Result :: 13.2

Query :: Value lookup for IC50; key = COc1cccc(C=NNC(=O)Cc2c(C)[nH][nH]c2=O)c1OC
Result :: 23.5

Query :: Which IC50 value belongs to C/C(=C\c1ccco1)C1c2c(-c3ccc(C)cc3)n[nH]c2OC(=N)C1C#N (stereo not given) ?
Result :: 132

Query :: Looking for the measured IC50 of N#CC1C(=N)Oc2[nH]nc(-c3ccc(F)cc3)c2C1c1cccnc1 (stereo not given) , can you help?
Result :: 61.2

Query :: Using the record for COc1ccccc1C=CC=NNC(=O)CCc1c(C)[nH][nH]c1=O , report its IC50.
Result :: 57.2

Query :: What measured IC50 goes with O=C(O)c1ccc(N=NCc2ccc(C(F)(F)F)cc2)cc1 ?
Result :: 46.3

Query :: Consider the molecule Cc1ccc(S(=O)(=O)Oc2cccc(-n3c(O)c4c(c3O)CC=CC4)c2)cc1 and give its measured IC50.
Result :: 49.6

Query :: // lookup IC50 for CCOC(=O)C1C(=O)C(=Cc2ccc(OCC(=O)O)c(OCC)c2)SC1=Nc1ccc(OC)cc1 (stereo not given)
Result :: 21.3

Query :: Report IC50 for CCOc1ccc(-n2c(O)cc(SCCN)c2O)cc1 please.
Result :: 23.6

Query :: Need IC50 of Cc1[nH][nH]c(=O)c1CCC(=O)NN=Cc1ccc(Cl)c(Cl)c1 , thanks.
Result :: 15

Query :: Which IC50 value is on record for Cc1ccc(-c2n[nH]c3c2C(c2cccnc2)C(C#N)C(=N)O3)cc1 (stereo not given) ?
Result :: 25.8

Query :: What value of IC50 has been recorded for this entry: C=c1cc2[nH]c(=O)c(=Cc3cccn3CCCOc3ccc(OC)cc3)c(=N)n2o1
Result :: 10.9

Query :: Recorded IC50 of CC(=NNC(=O)CCc1c(C)[nH][nH]c1=O)c1ccc([N+](=O)[O-])cc1 , please.
Result :: 80.6

Query :: Recorded IC50 of CN(C)c1ccc(/N=N/c2ccccc2C(=O)OCC(=O)N2CCCC2)cc1 , please.
Result :: 9.23

Query :: State the recorded IC50 for this entry: COc1ccc(NC(=O)CSc2cc(O)n(-c3ccc4c(c3)OCCO4)c2O)cc1
Result :: 16.1

Query :: Requested read-out: IC50. Entry: C=CCN1C(=O)/C(=C/c2ccc(OCC(=O)O)cc2)SC1=Nc1nccs1
Result :: 18.9
